Where these numbers come from: ChEMBL document CHEMBL1149624

Could you please report measured Tm for the items listed next?
Species: Homo sapiens
assay.comment: Binding affinity to human telo21 G-quadruplex DNA assessed as thermal stability in tris-HCl buffer at pH 7.4
Numbers only, in °C.

Here are 3 molecules together with their reported answers.
COc1ccc2cc3[n+](cc2c1OCCN(C(C)C)C(C)C)CCc1cc2c(cc1-3)OCO2 :: 51.7
CCN(CC)CCOc1c(OC)ccc2cc3[n+](cc12)CCc1cc2c(cc1-3)OCO2 :: 57
COc1ccc2cc3[n+](cc2c1OCCCN1CCNCC1)CCc1cc2c(cc1-3)OCO2 :: 63.1

Prompt: I am curious: what Tm value has been reported for COc1ccc2cc3[n+](cc2c1OC)CCc1cc2c(cc1-3)OCO2 [BERBERINE CHLORIDE] ?
Completion: 44

###

Species: Homo sapiens
assay.comment: Binding affinity to human telo21 G-quadruplex DNA assessed as change in thermal stability in tris-HCl buffer at pH 7.4
value.type: ΔTm

Here are 3 compounds together with their reported answers.
COc1ccc2cc3[n+](cc2c1OCCN(C(C)C)C(C)C)CCc1cc2c(cc1-3)OCO2 :: 11.6 °C
CCN(CC)CCOc1c(OC)ccc2cc3[n+](cc12)CCc1cc2c(cc1-3)OCO2 :: 16.9 °C
COc1ccc2cc3[n+](cc2c1OCCCN1CCNCC1)CCc1cc2c(cc1-3)OCO2 :: 23 °C

Prompt: I am curious: what ΔTm value has been reported for COc1ccc2cc3[n+](cc2c1OC)CCc1cc2c(cc1-3)OCO2 [BERBERINE CHLORIDE] ?
Completion: 3.9 °C
